# key: entry, value: koff
# Measured Target: T1, Soluble heterodimeric CD3 protein (hCD3-epsilon/hCD3-delta) with either a human Fc tag (hFcΔAdp/hFc) or a … (human, UniProt P07766 23-126; P04234 22-105)
# T1 construct: also called hCD3ε/δ; not shown: Fc tag: human (hFcΔAdp/hFc)
# T1 sequence (P07766 23-126 limits assumed, stated change not applied, chain 1 of 2): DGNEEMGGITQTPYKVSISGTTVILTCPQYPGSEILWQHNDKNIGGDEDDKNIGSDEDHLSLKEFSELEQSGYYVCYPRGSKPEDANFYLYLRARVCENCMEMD
# T1 sequence (P04234 22-105 limits assumed, stated change not applied, chain 2 of 2): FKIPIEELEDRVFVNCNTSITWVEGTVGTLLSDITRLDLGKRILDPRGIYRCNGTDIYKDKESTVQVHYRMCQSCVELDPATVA
# Assay: SPR Biacore 25C antibody-capture
# Description: Measurements were conducted on a T200 Biacore™ instrument. Soluble heterodimeric CD3 protein (hCD3-epsilon/hCD3-delta; SEQ ID NOs:1652/1653) with either a human Fc tag (hFcΔAdp/hFc; SEQ ID NOs:1683/1684) or a mouse Fc tag (mFcΔAdp/mFc; SEQ ID NOs:1685/1686) was injected over the antibody captured surface and the binding response was recorded. Heterodimeric CD3 protein was purified using the method described in Davis et al. (US2010/0331527). […]
Quick reminder: number only, in s⁻¹, skip the unit.

H1H5801B (antibody, human IgG1, V domains shown, H1H: human IgG1 Fc; divalent) VH: QVQLVQSGGGVVQPGGSLRLSCAASGFTFDDYAMHWVRQAPGKGLEWVSLISGDGGSTYYADSVKGRFTISRDNSKNSLYLQMNSLRTEDTALYYCAKDDSSSSWYYYYYGMDVWGRGTTVTVSS VL: DIQMTQSPSSLSASVGDRVTITCRASQRISSYLNWYQQKPGKAPKVLISVASSLQSGVPSRFSGSGSGTDFTLTISSLQPEDFASYYCQQSYNTPLTFGGGTKVEIKR: 0.00162

# next binder below
Task: I have this binder here, H1H5795B (antibody, human IgG1, V domains shown, H1H: human IgG1 Fc; divalent) VH: EVQLVESGAEVKKPGASVKVSCKTSGYSFIGYYIHWMRQAPGQGLEWMGWINPKSGVTNYAQRFQGRVTMTRDTSISTAYMELSRLKSDDTAVYFCARMGDGAVFDFWGQGTLVTVSS VL: DIQLTQSPSSLSASVGDRVTITCRASQRISSFLNWYQQKPGKVPKLLIYTASNLQNGVPSRFSGTGSGTDFTLTISSLQPEDFATYYCQQSYRTPLTFGGGTKVDIKR , and I need its recorded koff.
Output: 0.000576
